SUBJECT_OF_TEST: T1, human CD33 extracellular domain (human, UniProt P20138 18-259)
T1 construct: soluble monomeric ECD; also called human CD33 ECD; hCD33
PROTOCOL_SUMMARY: BLI Octet, IgG loaded;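 note: IgGs captured on AHC biosensors, exposed to 100 nM antigen for 3 min association then 3 min dissociation in buffer, kinetics fitted with a 1:1 binding model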
Reported Kd by item:
Number in nM, nothing else.

INSERT INTO assay_data (binder, measurement_units, assay_value) VALUES
  ('ADI-10161 IgG (antibody, V domains shown, IgG; also called Ab16) VH: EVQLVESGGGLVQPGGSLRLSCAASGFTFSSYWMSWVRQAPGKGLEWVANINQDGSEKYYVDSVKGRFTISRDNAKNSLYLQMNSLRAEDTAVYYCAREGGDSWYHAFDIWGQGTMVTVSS VL: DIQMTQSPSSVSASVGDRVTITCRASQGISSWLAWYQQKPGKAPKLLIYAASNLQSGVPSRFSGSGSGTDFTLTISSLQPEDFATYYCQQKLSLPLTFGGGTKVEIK', 'nM', 3.7),
  ('ADI-11835 IgG (antibody, V domains shown, IgG; also called Ab10; I35) VH: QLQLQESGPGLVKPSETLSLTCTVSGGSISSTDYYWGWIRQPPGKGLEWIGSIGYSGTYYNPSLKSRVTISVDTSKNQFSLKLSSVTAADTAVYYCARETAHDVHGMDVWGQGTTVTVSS VL: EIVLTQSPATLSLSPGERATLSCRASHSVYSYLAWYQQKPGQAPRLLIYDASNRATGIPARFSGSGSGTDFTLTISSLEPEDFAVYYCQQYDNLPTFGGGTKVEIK', 'nM', 0.281),
  ('ADI-11819 IgG (antibody, V domains shown, IgG; also called Ab8) VH: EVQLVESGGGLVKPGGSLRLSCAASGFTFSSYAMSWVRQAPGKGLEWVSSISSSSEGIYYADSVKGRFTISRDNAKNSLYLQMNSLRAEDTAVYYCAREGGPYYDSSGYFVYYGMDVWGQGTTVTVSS VL: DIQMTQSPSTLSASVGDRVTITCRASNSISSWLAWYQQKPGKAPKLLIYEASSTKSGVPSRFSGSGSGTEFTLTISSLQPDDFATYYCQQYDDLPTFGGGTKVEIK', 'nM', 0.243);

Turning now to a further record.
Noted for ADI-11828 IgG (antibody, V domains shown, IgG; also called Ab27) VH: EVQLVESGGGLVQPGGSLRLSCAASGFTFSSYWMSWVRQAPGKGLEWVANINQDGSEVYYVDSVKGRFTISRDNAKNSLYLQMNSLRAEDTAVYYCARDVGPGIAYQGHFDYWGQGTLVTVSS VL: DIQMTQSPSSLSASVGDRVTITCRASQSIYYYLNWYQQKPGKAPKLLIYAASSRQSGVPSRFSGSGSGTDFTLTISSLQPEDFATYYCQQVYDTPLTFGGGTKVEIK : its Kd reads 0.81
